In this section we review reported protein stability index values for a set of variants.
B1: MNAT1 (parent)
chain: LEEALYEYQPLQIETYGPHVPELE

variants of: B1; test: protein stability index of a GFP-peptide fusion (GPS, HEK-293T) (PSI 1-6); higher = more stable; conditions: c terminus: a fixed tail appended;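 further: lentivirally expressed fusions sorted by FACS into six bins by GFP to DsRed ratio, PSI derived from sequencing read proportions per bin multiplied by bin number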
Please reply with the number alone, leaving off any unit.

Solved cases (4 shown):
- L1H: 4.98
- V20L: 2.49
- P18A: 2.74
- E2H: 1.73

// protein stability index lookup, variant = Y6D , result: 4.36

Form field protein stability index, entry L23F : 2.87

Summary for this variant, H19R : protein stability index is 3.99

This collection of values is drawn from the supplement of paper PMC10567573.
